Cited source: PubChem BioAssay (NCATS)

system: CP185; assay: qHTS profiling for inhibitors of Plasmodium falciparum proliferation (AID 504749); note: nearly all actives have a fitted effect of over 60% in size; note: potency is the fitted concentration of half-maximal effect; conditions: P. falciparum in erythrocytes, SYBR Green DNA, 72 h; series mostly up to 28.7 µM
Records with an inconclusive call do not appear. The source made the active and inactive calls. Calls come from the whole dose curve; as a rule, active = well fitted inhibition curve with a large enough effect; inconclusive = small, poorly fitted or top-dose-only effect; inactive = flat fitted curve, though single readings scatter.
Reported Property: Potency

- Compound: "CCCC[C@H](O)c1ccccc1"
  Reported Property: "Potency"
  Result: "inactive"
- Compound: "CC(=O)OCC(=O)[C@@]1(O)CCC2C3C[C@H](C)C4=CC(=O)C=CC4(C)C3C(O)CC21C (stereo not given in full)"
  Reported Property: "Potency"
  Result: "inactive"
- Compound: "CC[C@@]1(O)CC2CN(CCc3c([nH]c4ccccc34)[C@](C(=O)OC)(c3cc4c(cc3OC)N(C)C3[C@@](O)(C(=O)OC)C(OC(C)=O)[C@]5(CC)C=CCN6CC[C@@]43C65)C2)C1 (stereo not given in full)"
  Reported Property: "Potency"
  Result: "2.24 µM (active)"
- Compound: "C[C@H](CN1c2ccccc2Sc2cccnc21)N(C)C"
  Reported Property: "Potency"
  Result: "11.2 µM (active)"
- Compound: "Cc1ccc(/C=C2/C(=O)C3(C)CCC2C3(C)C)cc1 (stereo not given)"
  Reported Property: "Potency"
  Result: "inactive"

---

test system: HB3; assay: qHTS profiling for inhibitors of Plasmodium falciparum proliferation (AID 504749); note: nearly all actives have a fitted effect of over 60% in size; details: P. falciparum in erythrocytes, SYBR Green DNA, 72 h; series mostly up to 28.7 µM
Results filed as inconclusive are left out. Active and inactive are the calls of the source. Calls follow the shape of the dose curve; as a rule, active = well fitted inhibition curve with a large enough effect; inconclusive = small, poorly fitted or top-dose-only effect; inactive = flat fitted curve, though single readings scatter.
Outcome codes: active, inactive

- Compound: "CC[C@H](C)[C@H]1O[C@]2(CC[C@@H]1C)C[C@@H]1C[C@@H](C/C=C(\\C)[C@H](O[C@@H]3C[C@H](OC)[C@H](O[C@@H]4C[C@H](OC)[C@@H](O)[C@H](C)O4)[C@H](C)O3)[C@@H](C)/C=C/C=C3\\CO[C@@H]4[C@H](O)C(C)=C[C@@H](C(=O)O1)[C@]34O)O2"
  Assigned Label: "active"
- Compound: "C/C1=C2/[N-]C(C(CC(N)=O)[C@@]2(C)CCC(=O)NCC(C)OP(=O)([O-])O[C@H]2[C@@H](O)[C@@H](n3cnc4cc(C)c(C)cc43)O[C@@H]2CO)[C@]2(C)N=C(/C(C)=C3N=C(/C=C4N=C1C(CCC(N)=O)C\\4(C)C)[C@@H](CCC(N)=O)[C@]\\3(C)CC(N)=O)[C@@H](CCC(N)=O)[C@]2(C)CC(N)=O.CC(=O)O.[Co] (some centres undefined)"
  Assigned Label: "inactive"
- Compound: "COc1cccc(OC)c1C(=O)NC1C(=O)N2C1SC(C)(C)C2C(=O)O (centres undefined)"
  Assigned Label: "inactive"
- Compound: "C=C1C(n2cnc3c(=O)[nH]c(N)nc32)C[C@H](O)[C@H]1CO (some centres undefined)"
  Assigned Label: "inactive"
- Compound: "NC(=O)OC[C@@H]1[C@H](NC(=O)/C(=N/OCC(=O)O)c2csc(N)n2)C(=O)N1S(=O)(=O)O"
  Assigned Label: "inactive"
- Compound: "Nc1nc(Cl)nc2c1ncn2[C@@H]1O[C@H](CO)[C@H](O)C1F (some centres undefined)"
  Assigned Label: "inactive"
- Compound: "CC1CN(c2c(F)c(N)c3c(=O)c(C(=O)O)cn(C4CC4)c3c2F)CC(C)N1 (centres undefined)"
  Assigned Label: "inactive"
- Compound: "Cc1cnc(NC(=O)C2C(=O)c3ccccc3S(=O)(=O)N2C)s1 (centres undefined)"
  Assigned Label: "inactive"
- Compound: "CC1=C(C/C=C(\\C)CCCC(C)CCCC(C)CCCC(C)C)C(=O)c2ccccc2C1=O (centres undefined)"
  Assigned Label: "active"
- Compound: "CC1(C)O[C@@H]2C[C@H]3[C@@H]4CCC5=CC(=O)C=C[C@]5(C)[C@H]4C(O)C[C@]3(C)[C@]2(C(=O)CO)O1 (some centres undefined)"
  Assigned Label: "inactive"
- Compound: "CC(=O)N1CC(O)CC1C(=O)O (centres undefined)"
  Assigned Label: "inactive"
- Compound: "CC(C)(C)NC[C@H](O)CSc1nc(-c2ccc(C(N)=O)s2)cs1"
  Assigned Label: "inactive"
- Compound: "NC[C@@H]1O[C@H](OC2[C@@H](CO)O[C@@H](OC3[C@H](O)[C@H](N)C[C@H](N)[C@H]3OC3O[C@H](CO)[C@@H](O)[C@H](O)[C@@H]3N)[C@H]2O)C(N)[C@H](O)[C@@H]1O (some centres undefined)"
  Assigned Label: "inactive"
- Compound: "OCC1O[C@H](O[C@H]2C(O)C(O)C(O)O[C@@H]2CO)C(O)C(O)C1O (some centres undefined)"
  Assigned Label: "inactive"
- Compound: "C[n+]1c2cc(N)ccc2cc2ccc(N)cc21"
  Assigned Label: "active"
- Compound: "C[C@]12CC[C@@H]3c4ccc(O)cc4C[C@@H](CCCCCCCCCS(=O)CCCC(F)(F)C(F)(F)F)C3[C@@H]1CC[C@@H]2O (some centres undefined)"
  Assigned Label: "active"
- Compound: "C=CCn1c(=O)n(C2OC(CO)C(O)C2O)c2nc(N)[nH]c(=O)c21 (centres undefined)"
  Assigned Label: "inactive"
- Compound: "CCN(CC)C(=O)Nc1ccc(OC[C@H](O)CNC(C)(C)C)c(C(C)=O)c1"
  Assigned Label: "inactive"
- Compound: "OCC(O)C(O)C(O)C(O)CO (centres undefined)"
  Assigned Label: "inactive"
- Compound: "Cn1cc(C(=O)[C@@H]2CCc3[nH]cnc3C2)c2ccccc21"
  Assigned Label: "inactive"
- Compound: "CO/N=C(/C(=O)N[C@@H]1C(=O)N2C(C(=O)O)=C(CSc3nc(C)c(CC(=O)O)s3)CS[C@H]12)c1csc(N)n1"
  Assigned Label: "inactive"
- Compound: "CC(=O)NC[C@@H]1CN(c2ccc(N3CCOCC3)c(F)c2)C(=O)O1"
  Assigned Label: "inactive"
- Compound: "CCCC(=O)Nc1c(I)cc(I)c(C[C@H](CC)C(=O)O)c1I"
  Assigned Label: "inactive"
- Compound: "C[C@@H]1CC2[C@@H]3C[C@H](F)C4=CC(=O)C(Cl)=C[C@]4(C)[C@@]3(F)[C@H](O)C[C@]2(C)[C@@]1(O)C(=O)CO (some centres undefined)"
  Assigned Label: "inactive"
- Compound: "O=C1C(I)=CC(=C(c2cc(I)c(O)c(I)c2)c2ccccc2C(=O)O)C=C1I"
  Assigned Label: "inactive"
- Compound: "CC1C(=O)C(=O)C=CN1C (centres undefined)"
  Assigned Label: "inactive"
- Compound: "Cc1ccc(S(=O)(=O)NC(=O)NC(C)Cc2ccccc2)cc1 (centres undefined)"
  Assigned Label: "inactive"
- Compound: "C[C@H]1[C@@H](OC(=O)CCC(=O)O)OC2OC3(C)CC[C@H]4[C@H](C)CC[C@@H]1[C@@]24OO3 (some centres undefined)"
  Assigned Label: "active"
- Compound: "CCN(CC)C(=O)[C@@]1(c2ccccc2)C[C@@H]1CN"
  Assigned Label: "inactive"
- Compound: "C=C(NCc1ccccc1)c1ccccc1O"
  Assigned Label: "inactive"
- Compound: "C#C[C@]1(O)CC[C@H]2[C@H]3[C@H](CC[C@@]21C)C1=C(CC(=O)CC1)C[C@@H]3C"
  Assigned Label: "inactive"
- Compound: "CCCCC(=O)O[C@]1(C(=O)CO)CCC2C3CCC4=CC(=O)CCC4(C)C3C(O)CC21C (some centres undefined)"
  Assigned Label: "inactive"
- Compound: "CC(=O)OC1C([N+]2(C)CCCCC2)C[C@H]2C3CC[C@H]4C[C@H](OC(C)=O)C([N+]5(C)CCCCC5)CC4(C)C3CCC12C (some centres undefined)"
  Assigned Label: "inactive"
- Compound: "OCC1O[C@@H](O[C@@H]2C(CO)OC(O)C(O)C2O)C(O)C(O)C1O (some centres undefined)"
  Assigned Label: "inactive"

---

Test system: PC15
Experiment: qHTS profiling for inhibitors of Plasmodium falciparum proliferation (AID 504749); note: nearly all actives have a fitted effect of over 60% in size
Conditions: P. falciparum in erythrocytes, SYBR Green DNA, 72 h; series mostly up to 28.7 µM
Method: NIH National Institute of Allergy and Infectious Diseases [NIAID] NIH Chemical Genomics Center [NCGC] […] Because mature erythrocytes lack DNA, only Plasmodium-derived DNA is detected. NCGC Assay Protocol Summary: The SYBR Green viability assay was adapted from a method described previously (Plouffe et al., 2008). […] The following morning, fluorescence intensity at 485(14) nm excitation and 535(25) nm emission wavelengths was measured on an EnVision (Perkin Elmer) plate reader. […]
Records with an inconclusive call do not appear. Calls of active or inactive are those of the source. Calls come from the whole dose curve; as a rule, active = well fitted inhibition curve with a large enough effect; inconclusive = small, poorly fitted or top-dose-only effect; inactive = flat fitted curve, though single readings scatter.
Outcome codes: label 1 = active, label 0 = inactive

- Molecule: "CC1(C)CC1C(=O)N/C(=C/CCCCSCC(N)C(=O)O)C(=O)O (stereo not drawn)"
  Assigned Label: "label 0"
- Molecule: "CCN1CCN(C(=O)NC(C(=O)NC2C(=O)N3C(C(=O)O)=C(CSc4nnnn4C)CSC23)c2ccc(O)cc2)C(=O)C1=O (stereo not drawn)"
  Assigned Label: "label 0"
- Molecule: "N#C/C(=C1/SCC(c2ccccc2Cl)S1)n1ccnc1 (stereo not drawn)"
  Assigned Label: "label 0"
- Molecule: "CCC(C(=O)O)C1OC(C(C)C(O)C(C)C(=O)C(CC)C2OC3(C=CC(O)C4(CCC(C)(C5CCC(O)(CC)C(C)O5)O4)O3)C(C)CC2C)C(C)CC1C (stereo not drawn)"
  Assigned Label: "label 1"
- Molecule: "COc1cc2c(cc1O)CCN[C@@]21CS[C@H]2c3c(OC(C)=O)c(C)c4c(c3C(COC1=O)N1C2C2c3c(cc(C)c(OC)c3O)CC([C@@H]1O)N2C)OCO4 (stereo partly drawn)"
  Assigned Label: "label 1"
- Molecule: "CCC(=O)OC1C(N(C)C)CC(C)O[C@H]1O[C@H]1[C@H](C)[C@@H](O[C@H]2CC(OC)[C@@H](O)C(C)O2)[C@H](C)C(=O)O[C@@H](CC)[C@](C)(O)[C@@H](O)[C@H](C)C(=O)[C@@H](C)C[C@]1(C)O (stereo partly drawn)"
  Assigned Label: "label 0"
- Molecule: "CC(=O)O[C@]1(C(C)=O)CCC2C3CCC4=CC(=O)CCC4(C)C3(F)C(O)CC21C (stereo partly drawn)"
  Assigned Label: "label 0"
- Molecule: "NC(=O)c1ncn(C2OC(CO)C(O)C2O)c1N (stereo not drawn)"
  Assigned Label: "label 0"
